Molecular target: T1, mouse LAG-3 protein with hFc tag (mLAG-3-hFc protein) (mouse; human, UniProt Q61790 24-442)
T1 construct: Made in HEK293 cells; also called mouse LAG-3 extracellular domain protein; not shown: human IgG Fc fragment (hFc) of the pCpC vector
T1 sequence: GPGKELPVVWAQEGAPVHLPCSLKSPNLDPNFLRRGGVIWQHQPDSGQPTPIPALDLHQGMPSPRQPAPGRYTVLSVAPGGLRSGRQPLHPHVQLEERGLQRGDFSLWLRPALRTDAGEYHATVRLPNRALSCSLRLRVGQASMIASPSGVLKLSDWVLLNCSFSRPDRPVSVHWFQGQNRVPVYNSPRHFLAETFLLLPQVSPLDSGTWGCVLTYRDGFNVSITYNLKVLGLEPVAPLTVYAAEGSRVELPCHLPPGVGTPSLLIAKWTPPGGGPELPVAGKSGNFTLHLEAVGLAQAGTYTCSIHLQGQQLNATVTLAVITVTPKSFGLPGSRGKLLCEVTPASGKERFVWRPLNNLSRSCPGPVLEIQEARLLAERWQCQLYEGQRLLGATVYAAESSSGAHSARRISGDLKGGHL
Assay: ELISA, mLAG-3-hFc coated; 0.6667 nM
property label: OD450 (OD450)

- 556F6B8 (LAG-3 mouse-human chimeric antibody) (antibody, V domains shown, also called 556F8B8) VH: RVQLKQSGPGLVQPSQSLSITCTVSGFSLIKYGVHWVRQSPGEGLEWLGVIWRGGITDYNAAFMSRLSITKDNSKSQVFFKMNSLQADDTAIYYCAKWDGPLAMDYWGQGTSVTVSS VL: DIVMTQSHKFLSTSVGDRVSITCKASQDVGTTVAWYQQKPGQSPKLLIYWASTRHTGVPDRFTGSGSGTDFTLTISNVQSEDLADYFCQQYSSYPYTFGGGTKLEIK: 0.15
